τon (mean inter-event interval) by entry:
Molecular target: MspA-PBA (phenylboronic acid modified hetero-octameric (N90C)1(M2)7 MspA) (Mycolicibacterium smegmatis, UniProt A0QR29, D117C/D118N/D120N/D145R/D161R/E166K)
Construct: H6 (hexa-histidine) (C); 3-(maleimide) phenylboronic acid (MPBA) adduct on the thiol of Cys90; made in house; host or cells: E. coli BL21 (DE3) pLysS, co-expression from pETDuet-1
Format: binding, Mycobacterium smegmatis
Conditions: NMP 300 μM in cis, +200 mV, N=3
Provide only the numeric value, understood in ms.

INSERT INTO results (compound, measure, unit_descriptor, numeric_result) VALUES
  ('Nc1ncnc2c1ncn2[C@@H]1O[C@H](COP(=O)(O)O)[C@@H](O)[C@H]1O [AMP, adenosine-5′-monophosphate]', 'τon (mean inter-event interval)', 'ms', 979.5);

Continue with the next compound.
Q: Which measured τon (mean inter-event interval) value corresponds to O=c1[nH]cc([C@@H]2O[C@H](COP(=O)(O)O)[C@@H](O)[C@H]2O)c(=O)[nH]1 [Ψ, Pseudouridine-5′-monophosphate] ?
A: 2047.7

----------
Biological target: MspA-PBA (phenylboronic acid modified hetero-octameric (N90C)1(M2)7 MspA) (Mycolicibacterium smegmatis, UniProt A0QR29, D117C/D118N/D120N/D145R/D161R/E166K)
Construct: H6 (hexa-histidine) (C); 3-(maleimide) phenylboronic acid (MPBA) adduct on the thiol of Cys90; made in house; host or cells: E. coli BL21 (DE3) pLysS, co-expression from pETDuet-1
Type: binding, Mycobacterium smegmatis
Settings: NMP 300 μM in cis, +200 mV, three independent measurements
measure: 1/τoff (s⁻¹)
Provide only the numeric value, understood in s⁻¹.

// below: answered compounds
INSERT INTO results (compound, unit_descriptor, numeric_result) VALUES
  ('Nc1ccn([C@@H]2O[C@H](COP(=O)(O)O)[C@@H](O)[C@H]2O)c(=O)n1 [CMP, Cytidine-5′-monophosphate]', 's⁻¹', 21.0),
  ('Nc1nc2c(ncn2[C@@H]2O[C@H](COP(=O)(O)O)[C@@H](O)[C@H]2O)c(=O)[nH]1 [GMP, guanosine-5′-monophosphate]', 's⁻¹', 10.5),
  ('Nc1ncnc2c1ncn2[C@@H]1O[C@H](COP(=O)(O)O)[C@@H](O)[C@H]1O [AMP, adenosine-5′-monophosphate]', 's⁻¹', 13.8);

Continue with the next compound.
Q: Which measured 1/τoff value corresponds to O=c1ccn([C@@H]2O[C@H](COP(=O)(O)O)[C@@H](O)[C@H]2O)c(=O)[nH]1 [UMP, uridine-5′-monophosphate] ?
A: 7.7

----------
Molecular target: MspA-PBA (boronic acid appended hetero-octameric MspA) (Mycolicibacterium smegmatis, UniProt A0QR29, D117C/D118N/D120N/D145R/D161R/E166K)
Construct: H6 (hexa-histidine) (C); 3-(maleimide) phenylboronic acid (MPBA) adduct on the thiol of Cys90; made in house; host or cells: E. coli BL21 (DE3) pLysS, co-expression from pETDuet-1
Sequence (A0QR29 other isoform, or with tags, fused parts or gaps D117N/D118N/D120N/D145R/D161R/E166K): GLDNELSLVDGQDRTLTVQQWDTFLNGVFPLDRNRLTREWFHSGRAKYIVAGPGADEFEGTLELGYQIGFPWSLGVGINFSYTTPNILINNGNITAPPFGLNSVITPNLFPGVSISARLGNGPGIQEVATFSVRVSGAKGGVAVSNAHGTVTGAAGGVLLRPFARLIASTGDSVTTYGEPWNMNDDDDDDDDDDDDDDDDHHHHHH
Sequence (A0QR29 other isoform, or with tags, fused parts or gaps D117C/D118N/D120N/D145R/D161R/E166K): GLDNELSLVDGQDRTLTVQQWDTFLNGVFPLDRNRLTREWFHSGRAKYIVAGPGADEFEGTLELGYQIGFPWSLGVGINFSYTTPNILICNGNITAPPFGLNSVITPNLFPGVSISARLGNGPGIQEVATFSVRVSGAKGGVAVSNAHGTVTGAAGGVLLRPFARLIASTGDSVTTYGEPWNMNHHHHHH
Assay: Single channel recording of alditol binding to MspA-PBA nanopore (standards and zero-sugar drinks)
Design: species or system Mycobacterium smegmatis
Conditions: +100 mV, alditol 4 mM (glycerol 8 mM) in cis, N=3
ratio (mean current percentage blockage) by entry:
Provide only the numeric value, understood in %.

// below: answered molecules
INSERT INTO results (molecule, measure, numeric_result) VALUES
  ('OC[C@@H](O)[C@@H](O)[C@@H](O)CO [adonitol]', 'ratio (mean current percentage blockage)', 24.13),
  ('OC[C@@H](O)[C@H](O)CO [threitol]', 'ratio (mean current percentage blockage)', 20.3),
  ('OC[C@@H](O)[C@H](O)[C@@H](O)[C@H](O)CO [iditol]', 'ratio (mean current percentage blockage)', 29.3),
  ('OC[C@@H](O)[C@H](O)[C@H](O)[C@@H](O)CO [dulcitol]', 'ratio (mean current percentage blockage)', 28.9),
  ('OC[C@@H](O)[C@@H](O)[C@H](O)[C@@H](O)CO [D-sorbitol]', 'ratio (mean current percentage blockage)', 30.43),
  ('OC[C@@H](O)[C@@H](O)[C@@H](O)[C@@H](O)CO [allitol]', 'ratio (mean current percentage blockage)', 27.57),
  ('OC[C@@H](O)[C@H](O)[C@H](O)[C@H](O)CO [talitol]', 'ratio (mean current percentage blockage)', 27.3),
  ('OC[C@@H](O)C(O)[C@H](O)CO [arabitol]', 'ratio (mean current percentage blockage)', 25.13),
  ('OCC(O)CO [glycerol]', 'ratio (mean current percentage blockage)', 17.07),
  ('OC[C@@H](O)[C@H](O)[C@@H](O)[C@@H](O)CO [L-sorbitol]', 'ratio (mean current percentage blockage)', 30.77);

Q: Which measured ratio (mean current percentage blockage) value corresponds to OC[C@@H](O)[C@@H](O)CO [erythritol] ?
A: 22.00

Q: Again, but for OC[C@@H](O)[C@H](O)[C@@H](O)CO [xylitol]
A: 25.70

Q: Again, but for OC[C@@H](O)[C@@H](O)[C@H](O)[C@H](O)CO [mannitol]
A: 29.2

Where do these numbers come from? They come from patent US20240418701A1.
